# Test system: NCI-H23 lung
# method_description: NCI-60 one-dose screen, 48 h (100 = growth as untreated, 0 = no growth, -100 = all killed)
# experimental_conditions: 10 µM unless noted
The panel holds about 83,000 compounds, 20% with a hit somewhere; the sample as a whole holds those more often.
Field: label. Allowed values: YES (growth < 70%) or NO (growth >= 70%).

NNC(=O)c1nc2ccccc2[nH]1: NO
CCCC1CCCCN1C(=O)OCC(C)C (configuration not stated): NO
C[Si](C)(C)Cc1ccccc1: NO
COc1cccc(-c2nn(-c3ccccc3)cc2-c2ccnc(NCCCNS(=O)(=O)c3ccc(Br)cc3)c2)c1: YES
O=C(c1ccccc1)C(CN1CCOCC1)c1ccccc1 (configuration not stated): YES
COc1cc(C(=O)/C=C/c2cc(-c3ccc4c(c3)OCO4)n[nH]2)cc(OC)c1OC: YES

###

# Tested on: UACC-257 melanoma
# method_description: NCI-60 one-dose screen, 48 h (100 = growth as untreated, 0 = no growth, -100 = all killed)
# experimental_conditions: 10 µM unless noted
# Method: Cells are grown in 96 well plates and exposed to the test compound for 48 hours. Compounds are tested at a single concentration, which is 10^-5 M for most compounds. The reported endpoint is percent growth (GI% or GIPRCNT), where numbers from 0 - 100% represent growth inhibition, and numbers from -100% - 0 represent cell death. For example, a value of 40 represents 60% growth inhibition. A value of 0 means no net growth occurred over the course of the experiment. […]
This is part of a sample that, as a whole, favours compounds with a hit. Of some 83,000 tested, about 20% had one in any assay.
measurement_label: growth (%)

Cc1cccc(C)c1NC(=O)CSC(=S)N1CCCCC1: 102
CN(C)c1ccc(C(=O)c2ccc(N(C)C)c(N)c2)cc1N: 77.3
CC(C)c1cc(C(=O)O)c(O)c(C(C)C)c1.CC(C)c1cc(C(=O)O)c(O)c(C(C)C)c1.[Mn]: 98.8
CC(C)(C)n1cc(-c2ccnc(NCCCNS(=O)(=O)c3ccc(Cl)cc3)c2)c(-c2cccc(F)c2)n1: 93.1
CCC(=O)c1c(C)[nH]c(C)c1C: 99
C=C(C)[C@@H]1CC[C@]2(C)[C@H](CC[C@@H]3[C@H]4[C@H]5OC[C@@]4(CCC5(C)C)CC[C@]32C)[C@@]1(C)CCCN: 101
Cc1c(C)c2c(c(C)c1NC(=O)CCCCCCC(=O)O)CCC(C)(CCCC(C)CCCC(C)CCCC(C)C)O2 (stereo not given): 95.2
Cc1ccccc1-c1nc(C(Cl)Cl)nc2cc(-c3ccccc3)nn12: 107
Cc1cc2nc3c4cc(N)ccc4n(CCN(C)C)c3nc2cc1C: 11.9
Brc1ccc(Cn2nnnc2-c2ccn(-c3ccccc3)n2)cc1: 28.8
COc1cc2c(cc1-c1c(C)noc1C)ncc1nc(C3CCC(F)(F)CC3)n([C@@H](C)COC(F)F)c12: 35.9
COc1cc2c(cc1-c1c(C)noc1C)ncc1nc(C3CCCCC3)n([C@@H](C)COC(F)F)c12: 28.2
C=C(C)[C@@H]1CC[C@]2(CN)CC[C@]3(C)[C@H](CC[C@@H]4[C@@](C)(CCCN)[C@H](C(=C)C)CC[C@]43C)[C@@H]12: 99.7
Cc1cc2nc3c4cc(Cl)ccc4n(CCN(C)C)c3nc2cc1C: 38.7
C#Cc1cc2c(N)c(C(=O)c3cc(OC)c(OC)c(OC)c3)[nH]c2cc1OC: 70.5
CN1CCN(c2nc(-c3cccc4ccccc34)nc3sc4c(c23)CCCCCC4)CC1: 94.4
Nc1c2c(nc3ccc(Cl)cc13)CC(c1ccc(O)cc1)CC2=O (stereo not given): 78.2
COc1cc(/C=C/c2cc(/C=C/c3ccc(O)c(OC)c3)n(-c3ccc(Cl)cc3)c(=O)n2)ccc1O: 97
O=C1C=Cc2ncccc2C1=O: 88.1
CCCNc1nc(N(C)O)nc(N(C)O)n1: 56.2

###

# System: OVCAR-5 ovarian
# method_description: NCI-60 one-dose screen, 48 h
# experimental_conditions: 10 µM unless noted
This is part of a sample that, as a whole, favours compounds with a hit. Of some 83,000 tested, about 20% had one in any assay. Active and inactive are the calls of the source. The calls were made as follows: active = growth percent below 10; inactive = the rest.
Possible outcomes: label 1 for active, label 0 for inactive

O=C(/C=C\c1ccc2c(c1)OCO2)/C=C/c1ccc2c(c1)OCO2: label 0
Nc1nc2c(c(=O)[nH]1)C(c1ccc3c(c1)OCO3)C=C(C(=O)O)N2 (stereo not drawn): label 0
Cc1c(C)c2c(c(C)c1NC(=O)CCCCCCC(=O)O)CCC(C)(CCCC(C)CCCC(C)CCCC(C)C)O2 (stereo not drawn): label 0
CC(C)C[C@@H](NC(=O)[C@@H](Cc1ccccc1)NC(=O)c1cnccn1)B1O[C@H]2[C@H](O)[C@@H](C(=O)NCCCC[C@@H]3NC(=O)[C@@H](Cc4ccccc4)NC(=O)[C@H](CC(=O)O)NC(=O)CNC(=O)[C@H](CCCN=C(N)N)NC3=O)O[C@@H](CN)[C@H]2O1: label 1
Nc1c(C(=O)Nc2cccc(Cl)c2)sc2ncc(Cl)cc12: label 0
Cn1cnc2c1c(=O)n(CCC(=O)Nc1ccc(F)cc1)c(=O)n2C: label 0
N#C/C(=C\c1ccc(-c2ccccc2)o1)c1nc(-c2ccco2)cs1: label 0
COC(=O)C(N)CSC(c1ccccc1)(c1ccccc1)c1ccccc1 (stereo not drawn): label 0

###

# Tested on: SW-620 colon
# method_description: NCI-60 one-dose screen, 48 h (100 = growth as untreated, 0 = no growth, -100 = all killed)
# experimental_conditions: 10 µM unless noted
Compounds without any hit were thinned out: in the full panel of roughly 83,000, 20% have a hit.
// values below are reported growth
measurement_label: growth (%)

NC1(N)C=CC2=C(C=C1)C1(N)C3=C(C=CC(N)(N)C=C3)N2C2(N)C3=C(C=CC(N)(N)C=C3)N1C1=C2C=CC(N)(N)C=C1: 95.4
COc1ccccc1-n1cnc(N)c1C(=O)c1cc(OC)c(OC)c(OC)c1: 23.7
CN(C)CCCC1(c2ccc(F)cc2)OCc2cc(-c3ccc(C(F)(F)F)nc3)ccc21 (configuration not stated): 83.5
COc1cccc(NC(=O)c2sc3nc4c(cc3c2N)C(=O)CCC4)c1: 23.6
O=C1Nc2ccccc2/C1=C/c1cn(CCCn2c3ccccc3c(=O)c3ccccc32)c2ccccc12: 98.4
COc1ccc(C2=NN(c3nc(-c4ccc(OC)cc4)c(C#N)c(=O)n3C)C(=O)CC2)cc1: 108
CC1=NN(c2ccc(S(=O)(=O)O)cc2Cl)C(=O)C1: 107
COc1cccc(-c2nn(-c3ccccc3)cc2-c2ccnc(NCCNS(=O)(=O)c3cccc(F)c3)c2)c1: 46
Clc1ccc2c(NCCNc3nc(-c4ccccc4)cc(-c4ccccc4)n3)ccnc2c1: -53.7
COc1ccc2[nH]cc(-c3nc(-c4c[nH]c5ncccc45)cs3)c2c1: 19
COc1ccc2c(c1)c(-c1nc(-c3cn(C)c4ncccc34)cs1)cn2CCN: 62.3
COC(=O)[C@]12CC[C@@H](C)[C@H](C)[C@@H]1C1=CC(=O)[C@@H]3[C@@]4(C)C[C@@H](O)[C@H](O)[C@@]5(C)COC(=C45)C[C@@]3(C)[C@]1(C)CC2: 33.3
CCN1CCN(C(=O)[C@]23CC[C@@H](C)[C@H](C)[C@H]2C2=CC[C@@H]4[C@@]5(C)C/C(=C/c6cccc(OC)c6OC)C(=O)C(C)(C)[C@@H]5CC[C@@]4(C)[C@]2(C)CC3)CC1: 33.3
CCN1CCN(C(=O)[C@@]2(C)CC[C@]3(C)CC[C@]4(C)C(=CC(=O)[C@@H]5[C@@]6(C)CC[C@H](OCCC#N)C(C)(C)[C@@H]6CC[C@]54C)[C@@H]3C2)CC1: 97.9
O=C1c2ccccc2NC(c2cn(-c3ccccc3)nc2-c2cccs2)N1Cc1ccccc1 (configuration not stated): 97.3
Cn1c(=O)c2c(ncn2CCC(=O)Nc2ccc(F)cc2)n(C)c1=O: 106
CCN(CC)c1ccc(/C=C/c2cc(C)c3ccccc3n2)cc1: 22.3

###

# System: M14 melanoma
# method_description: NCI-60 one-dose screen, 48 h
# experimental_conditions: 10 µM unless noted
The panel holds about 83,000 compounds, 20% with a hit somewhere; the sample as a whole holds those more often. The source made the active and inactive calls. Rule for the calls: active = growth percent below 10; inactive = the rest.
Possible outcomes: active, inactive

COC(=O)[C@]12CC[C@@H](C)[C@H](C)[C@@H]1C1=CC[C@@H]3[C@@]4(C)C[C@@H](OC(C)=O)[C@H](O)[C@@](C)(CO)[C@@H]4[C@H](O)C[C@@]3(C)[C@]1(C)CC2: active
CCN1CCN(C(=O)[C@]23CCC(C)(C)C[C@@H]2C2=CC[C@@H]4[C@@]5(C)C/C(=C/c6cccnc6)C(=O)C(C)(C)[C@@H]5CC[C@@]4(C)[C@]2(C)CC3)CC1: inactive
CC(C)(C)c1[nH]nc2c1C(c1cc3ccccc3[nH]c1=O)Nc1cc(C(=O)OCc3ccccc3)ccc1N2 (centres undefined): inactive
NC1(N)C=CC2=C(C=C1)C1(N)C3=C(C=CC(N)(N)C=C3)N2C2(N)C3=C(C=CC(N)(N)C=C3)N1C1=C2C=CC(N)(N)C=C1: inactive
COc1cccc2c1C(=O)c1c(O)c3c(c(O)c1C2=O)C[C@@](O)(C(=O)CO)C[C@@H]3OC1C[C@H](N)[C@H](O)[C@H](C)O1 (some centres undefined): active
Cc1ccccc1-c1nc(C(Cl)Cl)nc2cc(-c3ccccc3)nn12: inactive
O=P(O)(c1ccccc1)c1ccccc1I: inactive
COc1ccc(C(=O)/C=C/c2cc(-c3cc(OC)c(OC)c(OC)c3)n[nH]2)cc1OC: active
C=C(C)[C@@H]1CC[C@]2(C=O)CC[C@]3(C)[C@H](CC[C@@H]4[C@@]5(C)C/C(=C/c6cccnc6)C(=O)C(C)(C)[C@@H]5CC[C@]43C)[C@@H]12: inactive
Cc1cc2nc3c4cc(N)ccc4n(CCN(C)C)c3nc2cc1C: active
O=C1CCC/C=C\C[C@H]2C=C(Cl)C(=O)/C2=C/C[C@H](CCCCC(F)(F)F)OC(=O)CCC/C=C\C[C@H]2C=C(Cl)C(=O)/C2=C/C[C@H](CCCCC(F)(F)F)O1: active
C=C1C(=O)O[C@H]2[C@H]1CC/C(Cn1cc(-c3ccc(OC)cc3)nn1)=C\CC[C@@]1(C)O[C@@H]21: active
C[C@H]1[C@@H]2[C@H]3CC[C@@H]4[C@@]5(C)Cc6c([nH]c7ccccc67)C(C)(C)[C@@H]5CC[C@@]4(C)[C@]3(C)CC[C@]23CO[C@]1(C)[C@@H](C(=O)/C=C/c1ccccn1)C3: inactive
Cn1cc(-c2nc(-c3c[nH]c4ncccc34)cs2)c2ccccc21: inactive

Cited source for all entries: PubChem BioAssay (NCI)
